# Assay name: IAM chromatography on new IAM.PC.DD2 columns (gradient HPLC, CHI (IAM))
# Type: physicochemical
# Design: key: CHI (IAM) from retention times calibrated to predefined CHI standards
# Test settings: new IAM.PC.DD2 column batch P20511-014-3, pH 7.4
Entries whose P20511-014-3 CHI (IAM) is below 20 take 1; entries at or above 20 take 0.

Check out these entries, answers already filled in.
molecule="CC(C(=O)O)c1ccc(-c2ccccc2)c(F)c1 (stereo not shown)" discrete_label=0
molecule="CCOC(=O)C1=C(C)NC(C)=C(C(=O)OC)C1c1cccc(Cl)c1Cl (stereo not shown)" discrete_label=0
molecule="CC(=O)CC(c1ccccc1)c1c(O)c2ccccc2oc1=O (stereo not shown)" discrete_label=0
molecule=Cc1noc(NS(=O)(=O)c2ccc(N)cc2)c1C discrete_label=1
molecule=O=C1NC(=O)C(c2ccccc2)(c2ccccc2)N1 discrete_label=0

Hi there! Is P20511-014-3 CHI (IAM) for CCN1CCCC1CNC(=O)c1cc(S(N)(=O)=O)ccc1OC (stereo not shown) [Sulpiride] below 20, do you know?
1

Hello, is P20511-014-3 CHI (IAM) of the following molecule strictly smaller than 20? "C#C[C@]1(O)CC[C@H]2[C@@H]3CCc4cc(O)ccc4[C@H]3CC[C@@]21C"
0

# check: P20511-014-3 CHI (IAM) < 20 for "C=CCOc1ccc(CC(=O)O)cc1Cl"
0

Please indicate whether the reported P20511-014-3 CHI (IAM) of CC(C(=O)O)c1cccc(Oc2ccccc2)c1 (stereo not shown) is strictly below 20.
0

Would you kindly verify if P20511-014-3 CHI (IAM) of "COc1ccc(NS(=O)(=O)c2ccc(N)cc2)nn1" is strictly less than 20?
1

----------
# Test settings: human
Measured quantity: reference log Vdss
Please give only the number in your answer, with no unit.

Observe how each entry below is paired with its result.
compound=Cn1cnc2c1c(=O)[nH]c(=O)n2C readout_value=-0.25
compound=C=CCOc1ccc(CC(=O)O)cc1Cl readout_value=-1.1
compound=C#C[C@]1(O)CC[C@H]2[C@@H]3CCc4cc(O)ccc4[C@H]3CC[C@@]21C readout_value=0.39
compound=COc1ccc2c(c1)c(CC(=O)O)c(C)n2C(=O)c1ccc(Cl)cc1 readout_value=-0.96
compound="CC(C)NCC(O)COc1cccc2[nH]ccc12 (stereo not shown)" readout_value=0.85
compound="NC(=O)N1c2ccccc2C=Cc2ccccc21 [Carbamazepine]" readout_value=-0.09

// lookup reference log Vdss for "CCn1nc(C(=O)O)c(=O)c2cc3c(cc21)OCO3"
-0.42

----------
# Assay name: IAM chromatography on new IAM.PC.DD2 columns (gradient HPLC, CHI (IAM))
# Type: physicochemical
# Test settings: new IAM.PC.DD2 column batch R20511-014-3, pH 7.4
Measured quantity: R20511-014-3 CHI (IAM)
API note: the answer field is a bare number with no unit suffix.

compound=COc1cc2c(c(OC)c1OC)-c1ccc(OC)c(=O)cc1[C@@H](NC(C)=O)CC2 measured_quantity="R20511-014-3 CHI (IAM)" readout_value=23.45
compound="CC(C)NCC(O)COc1cccc2[nH]ccc12 (stereo not drawn)" measured_quantity="R20511-014-3 CHI (IAM)" readout_value=25.69
compound="O=C1C(CC[S+]([O-])c2ccccc2)C(=O)N(c2ccccc2)N1c1ccccc1 (stereo not drawn)" measured_quantity="R20511-014-3 CHI (IAM)" readout_value=26.19

Any idea what R20511-014-3 CHI (IAM) was measured for CC(=O)Nc1ccccc1 [Acetanilide] ?
11.55

May I ask what R20511-014-3 CHI (IAM) has been recorded for NC(=O)OCC(COC(N)=O)c1ccccc1 [Felbamate] ?
39.16

Given the entry COC(=O)C1=C(C)NC(C)=C(C(=O)OC(C)C)C1c1cccc2nonc12 (stereo not drawn) , report its measured R20511-014-3 CHI (IAM).
39.11
